Hi there, I'd appreciate the recorded pEC50 for every entry that follows.
- TEST_SYSTEM: Nuclear receptor ROR-gamma (Mus musculus, UniProt P51450)
- Sequence (P51450 whole entry): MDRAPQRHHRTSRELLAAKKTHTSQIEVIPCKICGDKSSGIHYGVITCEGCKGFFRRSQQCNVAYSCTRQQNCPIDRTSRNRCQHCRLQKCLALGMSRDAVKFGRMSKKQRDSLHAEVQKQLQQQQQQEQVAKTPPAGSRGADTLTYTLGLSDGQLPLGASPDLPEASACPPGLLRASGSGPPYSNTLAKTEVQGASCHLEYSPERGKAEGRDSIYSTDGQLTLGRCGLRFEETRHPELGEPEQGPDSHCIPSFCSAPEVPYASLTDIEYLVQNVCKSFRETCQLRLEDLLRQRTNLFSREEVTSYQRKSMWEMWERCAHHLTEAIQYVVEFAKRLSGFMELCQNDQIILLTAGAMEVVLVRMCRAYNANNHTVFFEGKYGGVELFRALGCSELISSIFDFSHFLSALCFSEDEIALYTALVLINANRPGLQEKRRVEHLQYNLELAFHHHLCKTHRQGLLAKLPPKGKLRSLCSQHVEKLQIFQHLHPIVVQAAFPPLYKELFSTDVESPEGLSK
- ASSAY_REMARKS: Inverse agonist activity at RORgamma in C57BL/6 mouse splenocytes assessed as reduction of IL-17 production after 2 days by ELISA
One number for each entry, as −log10 of the molar value.

Completed entries (count: 8):
>>> measured_result("[2H]C([2H])([2H])N(C(=O)c1c(F)cccc1Cl)c1ccc(-c2cc(NC(C)=O)nn2C(C)C)cc1N1CCCCC1")
7.96
>>> measured_result("[2H]C([2H])([2H])N(C(=O)c1c(F)cccc1Cl)c1ccc(-c2cc(NC(C)=O)nn2C(C)C)cc1N1CC2CC2C1 (stereo unspecified)")
7.42
>>> measured_result("[2H]C([2H])([2H])N(C(=O)c1c(F)cccc1Cl)c1ccc(-c2cc(NC(=O)C(C)C)nn2C(C)C)cc1N1CC2CC2C1 (stereo unspecified)")
6.89
>>> measured_result("[2H]C([2H])([2H])N(C(=O)c1c(F)cccc1Cl)c1ccc(-c2cc(NC(C)=O)nn2C2CCC2)cc1N1CC2CC2C1 (stereo unspecified)")
6.70
>>> measured_result("[2H]C([2H])([2H])N(C(=O)c1c(F)cccc1Cl)c1ccc(-c2cc(NC(C)=O)nn2CC2CC2)cc1N1CC2CC2C1 (stereo unspecified)")
6.70
>>> measured_result("[2H]C([2H])([2H])N(C(=O)c1c(F)cccc1Cl)c1ccc(-c2cc(NC(=O)NC)nn2C(C)C)cc1N1CC2CC2C1 (stereo unspecified)")
6.45
>>> measured_result("[2H]C([2H])([2H])N(C(=O)c1c(F)cccc1Cl)c1ccc(-c2cc(NC(=O)[C@H]3C[C@H](O)C3)nn2C(C)C)cc1N1CC2CC2C1 (stereo partly specified)")
6.87
>>> measured_result("[2H]C([2H])([2H])N(C(=O)c1c(F)cccc1Cl)c1ccc(-c2cc(C(N)=O)nn2C(C)C)cc1OCC(F)(F)F")
5.70

# batch size: 8; output pEC50 per entry
1. [2H]C([2H])([2H])N(C(=O)c1c(C)cccc1F)c1ccc(-c2cc(NC(C)=O)nn2C(C)C)cc1N1CC2CC2C1 (stereo unspecified)
2. [2H]C([2H])([2H])N(C(=O)c1c(F)cccc1Cl)c1ccc(-c2cc(NC(C)=O)nn2C2CCCC2)cc1N1CC2CC2C1 (stereo unspecified)
3. [2H]C([2H])([2H])N(C(=O)c1c(F)cccc1Cl)c1ccc(-c2cc(NC(C)=O)nn2C(C)C)cc1OCC1CCC1
4. CC(=O)Nc1cc(-c2cnc(N(C)C(=O)c3c(F)cccc3Cl)c(N3CCCCC3)c2)n(C(C)C)n1
5. [2H]C([2H])([2H])N(C(=O)c1c(F)cccc1Cl)c1ccc(-c2cc(NC(=O)N3CC4(COC4)C3)nn2C(C)C)cc1N1CC2CC2C1 (stereo unspecified)
6. [2H]C([2H])([2H])N(C(=O)c1c(F)cccc1Cl)c1ccc(-c2cc(NC(=O)CC)nn2C(C)C)cc1N1CC2CC2C1 (stereo unspecified)
7. [2H]C([2H])([2H])N(C(=O)c1c(F)cccc1Cl)c1ccc(-c2cc(NC(=O)CO)nn2C(C)C)cc1N1CC2CC2C1 (stereo unspecified)
8. [2H]C([2H])([2H])N(C(=O)c1c(F)cccc1Cl)c1ccc(-c2cc(C(N)=O)ccc2Cl)cc1OCC(F)(F)F

Return:
6.45
7.22
5.51
7.47
6.83
7.48
6.92
6.05

Each compound below has a reported value. Please supply its pEC50.
1. [2H]C([2H])([2H])N(C(=O)c1c(F)cccc1Cl)c1ccc(-c2cc(NC(=O)C3CC3)nn2C(C)C)cc1N1CC2CC2C1 (stereo unspecified)
2. [2H]C([2H])([2H])N(C(=O)c1c(Cl)cccc1Cl)c1ccc(-c2cc(NC(C)=O)nn2C(C)C)cc1N1CC2CC2C1 (stereo unspecified)
3. [2H]C([2H])([2H])N(C(=O)c1c(F)cccc1Cl)c1ccc(-c2cnn(C)c2C(C)C)cc1OCC(F)(F)F
4. [2H]C([2H])([2H])N(C(=O)c1c(F)cccc1Cl)c1ccc(-c2cc(NC(=O)[C@H]3C[C@@H](O)C3)nn2C(C)C)cc1N1CC2CC2C1 (stereo partly specified)
5. CC(=O)Nc1cc(-c2ccc(N(C)C(=O)c3c(F)cccc3Cl)c(N3CC4CC4C3)c2)n(C(C)C)n1 (stereo unspecified)

Return:
[7.06, 7.14, 6.09, 6.87, 6.96]

Just for reference, ChEMBL document CHEMBL3596090 is where these values come from.
